Form field: pEC50 (one value per entry).
# measured.on: EGFR (Homo sapiens, UniProt P00533)
# Sequence (P00533 25-1210): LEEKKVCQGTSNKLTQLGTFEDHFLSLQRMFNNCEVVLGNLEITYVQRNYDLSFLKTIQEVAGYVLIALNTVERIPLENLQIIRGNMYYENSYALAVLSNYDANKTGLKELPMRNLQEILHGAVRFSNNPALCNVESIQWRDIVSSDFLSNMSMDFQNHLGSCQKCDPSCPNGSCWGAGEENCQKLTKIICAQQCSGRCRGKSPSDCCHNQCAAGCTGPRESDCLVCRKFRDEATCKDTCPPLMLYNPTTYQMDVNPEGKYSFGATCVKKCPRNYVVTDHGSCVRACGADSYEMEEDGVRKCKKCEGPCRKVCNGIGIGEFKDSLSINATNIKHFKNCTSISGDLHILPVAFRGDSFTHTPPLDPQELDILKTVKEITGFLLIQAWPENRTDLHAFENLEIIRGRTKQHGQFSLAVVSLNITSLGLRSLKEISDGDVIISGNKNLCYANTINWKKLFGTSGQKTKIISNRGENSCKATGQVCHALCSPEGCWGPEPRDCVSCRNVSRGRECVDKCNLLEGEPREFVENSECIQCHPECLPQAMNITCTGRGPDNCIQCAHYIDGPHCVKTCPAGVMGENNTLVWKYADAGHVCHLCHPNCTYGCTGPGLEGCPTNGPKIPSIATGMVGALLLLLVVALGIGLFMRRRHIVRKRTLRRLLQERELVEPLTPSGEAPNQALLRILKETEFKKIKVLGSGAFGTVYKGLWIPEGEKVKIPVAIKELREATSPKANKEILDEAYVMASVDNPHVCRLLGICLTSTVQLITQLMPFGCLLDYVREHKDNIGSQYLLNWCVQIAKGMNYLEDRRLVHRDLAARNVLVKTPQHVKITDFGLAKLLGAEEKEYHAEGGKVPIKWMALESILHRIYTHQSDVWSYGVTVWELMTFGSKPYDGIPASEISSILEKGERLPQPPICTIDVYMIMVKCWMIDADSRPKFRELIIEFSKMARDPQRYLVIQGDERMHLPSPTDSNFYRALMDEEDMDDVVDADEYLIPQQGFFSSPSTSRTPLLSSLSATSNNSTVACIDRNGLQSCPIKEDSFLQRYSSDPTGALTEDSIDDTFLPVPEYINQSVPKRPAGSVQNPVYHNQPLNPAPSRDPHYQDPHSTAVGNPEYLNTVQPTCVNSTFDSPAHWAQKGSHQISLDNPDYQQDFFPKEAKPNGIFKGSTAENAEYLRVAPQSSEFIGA
# experiment.description: EGFR signaling (pEGFR Tyr1068/total EGFR MSD) in A431 cells
# Format: cell-based
# Set-up: endogenous in cells; host or cells: A431, N87
# particulars: A431 cells; read-out: A431 pEGFR EC50
# Text: In addition to the engineered cell lines, the following cell lines were used: BT474 (human breast carcinoma), N87 (human gastric carcinoma), NCI-H1781 (human lung adenocarcinoma), and A431 (human epidermoid carcinoma); all cell lines were obtained from the American Type Culture Collection (ATCC, Manassas, VA). […]
pEC50: −log10 of the molar value.

Completed entries (count: 2):
Cc1ccc(Oc2ccc(Nc3ncnc4sc5c(c34)CN(C(=O)C=CCN(C)C)C5C)cc2C)cn1 (single isomer, unassigned) [Compound 169]
6.00 to 7.00
Cc1ccc(Oc2ccc(Nc3ncnc4sc5c(c34)CCN(C(=O)/C=C/CN[C@H]3CC[C@H](OC4CC4)CC3)C5)cc2C)cn1 [Compound 68]
> 7.00

# context switch: different compound, same pEC50
Recorded pEC50 (compound Cc1ccc(Oc2ccc(Nc3ncnc4sc5c(c34)C(C)N(C(=O)C=CCN(C)C)C5)cc2C)cn1 (single isomer, unassigned) [Compound 148] ): < 5.00

* * *

EC50 for assorted compounds
# measured.on: EGFR (Homo sapiens)
# experiment.description: EGFR signaling (pEGFR Tyr1068/total EGFR MSD) in A431 cells
# Type: cell-based
# Design: endogenous in cells; host or cells: A431, N87
# particulars: A431 cells; read-out: A431 pEGFR EC50

Below are worked cases with known answers.
Cc1ccc(Oc2ccc(Nc3ncnc4sc5c(c34)CCN(C(=O)/C=C/CNCCO)C5)cc2C)cn1
100 to 1000 nM
C#CCOCCN(C)C/C=C/C(=O)N1CCc2c(sc3ncnc(Nc4ccc(Oc5ccc(C)nc5)c(C)c4)c23)C1
< 100 nM
Cc1ccc(Oc2ccc(Nc3ncnc4sc5c(c34)CN(C(=O)C=CCN(C)C)C5C)cc2C)cn1 (single isomer, unassigned) [Compound 170]
< 100 nM
Cc1ccc(Oc2ccc(Nc3ncnc4sc5c(c34)CCN(C(=O)/C=C/CNCc3ccsc3)C5)cc2C)cn1
< 100 nM
Cc1ccc(Oc2ccc(Nc3ncnc4sc5c(c34)CCN(C(=O)/C=C/CN3CCC(n4ccnc4)CC3)C5)cc2C)cn1
100 to 1000 nM
Cc1ccc(Oc2ccc(Nc3ncnc4sc5c(c34)CCN(C(=O)/C=C/CN(C)C)CC5)cc2Cl)cn1
100 to 1000 nM
Cc1ccc(Oc2ccc(Nc3ncnc4sc5c(c34)CCN(C(=O)/C=C/CN3CC[C@@H](CO)C3)C5)cc2C)cn1
100 to 1000 nM
Cc1nc2cc(Oc3ccc(Nc4ncnc5sc6c(c45)CCN(C(=O)/C=C/CN(C)C)C6)cc3C)ccn2n1
1000 to 10000 nM

EC50 in this record for `Cc1cn2ccc(Oc3ccc(Nc4ncnc5sc6c(c45)CCN(C(=O)/C=C/CN(C)C)C6)cc3C)cc2n1` : 1000 to 10000 nM

compound Cc1ccc(Oc2ccc(Nc3ncnc4sc5c(c34)C(C)CN(C(=O)/C=C/CN3CCOCC3)C5)cc2C)cn1 (centres unmarked) , EC50 observed: 100 to 1000 nM

Data point: `Cc1ccc(Oc2ccc(Nc3ncnc4sc5c(c34)CN(C(=O)/C=C/CN(C)C)C5)cc2C)cn1` ; EC50 = 100 to 1000 nM

Per the record, `Cc1ccc(Oc2ccc(Nc3ncnc4sc5c(c34)CCCN(C(=O)/C=C/CN(C)C)C5)cc2C)cn1` has EC50 of 100 to 1000 nM

So, `Cc1ccc(Oc2ccc(Nc3ncnc4sc5c(c34)CCN(C(=O)/C=C/CN3CC4CC(C3)O4)C5)cc2C)cn1` ? Its EC50 was 100 to 1000 nM

Recorded result, `Cc1ccc(Oc2ccc(Nc3ncnc4sc5c(c34)CN(C(=O)/C=C/CN(C)C)CC5)cc2C)cn1` , EC50: < 100 nM

* * *

# measured.on: HER2YVMA (Homo sapiens, UniProt P04626, INS775YVMA)
# Sequence (P04626 with tags, fused parts or gaps INS775YVMA): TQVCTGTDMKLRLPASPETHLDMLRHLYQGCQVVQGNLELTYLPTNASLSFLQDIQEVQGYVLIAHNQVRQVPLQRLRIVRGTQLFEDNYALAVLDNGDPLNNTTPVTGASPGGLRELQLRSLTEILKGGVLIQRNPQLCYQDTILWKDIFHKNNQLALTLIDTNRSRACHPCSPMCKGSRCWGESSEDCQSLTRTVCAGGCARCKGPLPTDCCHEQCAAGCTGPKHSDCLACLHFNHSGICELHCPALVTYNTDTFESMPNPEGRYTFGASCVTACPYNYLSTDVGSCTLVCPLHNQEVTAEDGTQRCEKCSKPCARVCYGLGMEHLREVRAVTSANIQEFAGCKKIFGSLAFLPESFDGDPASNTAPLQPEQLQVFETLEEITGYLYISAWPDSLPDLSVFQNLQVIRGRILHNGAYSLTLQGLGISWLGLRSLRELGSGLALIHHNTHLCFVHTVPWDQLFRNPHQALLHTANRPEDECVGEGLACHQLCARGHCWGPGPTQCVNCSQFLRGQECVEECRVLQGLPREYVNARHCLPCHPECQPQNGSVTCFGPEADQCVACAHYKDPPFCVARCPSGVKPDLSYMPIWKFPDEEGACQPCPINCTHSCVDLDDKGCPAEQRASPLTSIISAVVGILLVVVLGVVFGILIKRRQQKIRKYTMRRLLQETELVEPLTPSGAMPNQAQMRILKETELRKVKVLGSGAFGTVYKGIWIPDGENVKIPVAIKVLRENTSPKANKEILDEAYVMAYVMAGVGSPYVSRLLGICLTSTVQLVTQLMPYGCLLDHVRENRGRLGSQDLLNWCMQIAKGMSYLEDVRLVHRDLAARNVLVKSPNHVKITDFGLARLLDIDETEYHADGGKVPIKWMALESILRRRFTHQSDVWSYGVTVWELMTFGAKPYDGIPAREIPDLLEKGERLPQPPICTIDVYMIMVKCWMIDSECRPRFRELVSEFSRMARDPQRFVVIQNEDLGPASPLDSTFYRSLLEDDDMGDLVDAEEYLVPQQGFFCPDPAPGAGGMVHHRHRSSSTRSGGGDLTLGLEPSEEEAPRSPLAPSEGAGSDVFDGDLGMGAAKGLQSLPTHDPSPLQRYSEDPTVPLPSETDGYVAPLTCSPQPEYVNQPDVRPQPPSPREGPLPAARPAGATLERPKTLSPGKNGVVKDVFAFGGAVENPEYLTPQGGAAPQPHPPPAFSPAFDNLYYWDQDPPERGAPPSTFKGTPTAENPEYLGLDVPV
# experiment.description: HER2 signaling (pHER2) in Hek293-HER2YVMA cells
# Format: cell-based
# Design: expressed in transfected cells; host or cells: HEK293 (pool), Ba/F3 (clones), BEAS2B (clones); lentiviral vector pCDH-CMV-MCS-EF1-Neo
# particulars: 1.5 hr compound, 1% FBS, read-out: HEKYVMA pHER2 EC50
Quick reference: EC50 of the listed items.

A selection of reference data follows.
Cc1cc(Nc2ncnc3sc4c(c23)CCN(C(=O)/C=C/CN2CC3CC(C3)C2)C4)ccc1Oc1ccc2ncnn2c1
< 0.1 µM
Cc1cc(Nc2ncnc3sc4c(c23)CCN(C(=O)/C=C/CN(C)C)CC4)ccc1Oc1ccn2ccnc2c1
0.1 to 0.35 µM
Cc1ccc(Oc2ccc(Nc3ncnc4sc5c(c34)CN(C(=O)/C=C/CN(C)C)CC5)cc2C)cn1
< 0.1 µM

Next item in the queue.
Reported EC50 for Cc1ccc(Oc2ccc(Nc3ncnc4sc5c(c34)CCN(C(=O)/C=C/CN3CC4CC3CO4)C5)cc2C)cn1 (stereo not shown) was < 0.1 µM

* * *

Each item that follows carries a reported EC50.
# measured.on: HER2YVMA (Homo sapiens, UniProt P04626, INS775YVMA)
# experiment.description: HER2 signaling (pHER2) in Hek293-HER2YVMA cells
# Assay type: cell-based
# Parameters: expressed in transfected cells; host or cells: HEK293 (pool), Ba/F3 (clones), BEAS2B (clones); lentiviral vector pCDH-CMV-MCS-EF1-Neo
# particulars: 1.5 hr compound, 1% FBS, read-out: HEKYVMA pHER2 EC50

Guide cases for EC50, answers given:
Cc1ccc(Oc2ccc(Nc3ncnc4sc5c(c34)CCN(C(=O)/C=C/CN3CC4CCC3C4)C5)cc2C)cn1 (stereo not shown) [Compound 14]
< 100 nM
COc1ccc(Oc2ccc(Nc3ncnc4sc5c(c34)CCN(C(=O)/C=C/CN3CC[C@@H](CO)C3)C5)cc2C)cn1 [Compound 143]
< 100 nM
Cc1cc(Nc2ncnc3sc4c(c23)CCN(C(=O)/C=C/CN2CC(C)(C)OC(C)(C)C2)C4)ccc1Oc1ccc2ncnn2c1 [Compound 84]
100 to 350 nM

In the following, a different compound is considered.
So the reported EC50 for CON(C)C/C=C/C(=O)N1CCc2c(sc3ncnc(Nc4ccc(Oc5ccc(C)nc5)c(C)c4)c23)C1 [Compound 56] , on HER2YVMA (Homo sapiens, UniProt P04626, INS775YVMA), turned out to be 350 to 1000 nM

* * *

# measured.on: HER2VC (G776delinsVC) (Homo sapiens, UniProt P04626, G776C/INS775V)
# Construct: NCI-H1781 cells which endogenously expresses a HER2 mutant protein; endogenous in cells
# Sequence (P04626 with tags, fused parts or gaps INS775V/G776C): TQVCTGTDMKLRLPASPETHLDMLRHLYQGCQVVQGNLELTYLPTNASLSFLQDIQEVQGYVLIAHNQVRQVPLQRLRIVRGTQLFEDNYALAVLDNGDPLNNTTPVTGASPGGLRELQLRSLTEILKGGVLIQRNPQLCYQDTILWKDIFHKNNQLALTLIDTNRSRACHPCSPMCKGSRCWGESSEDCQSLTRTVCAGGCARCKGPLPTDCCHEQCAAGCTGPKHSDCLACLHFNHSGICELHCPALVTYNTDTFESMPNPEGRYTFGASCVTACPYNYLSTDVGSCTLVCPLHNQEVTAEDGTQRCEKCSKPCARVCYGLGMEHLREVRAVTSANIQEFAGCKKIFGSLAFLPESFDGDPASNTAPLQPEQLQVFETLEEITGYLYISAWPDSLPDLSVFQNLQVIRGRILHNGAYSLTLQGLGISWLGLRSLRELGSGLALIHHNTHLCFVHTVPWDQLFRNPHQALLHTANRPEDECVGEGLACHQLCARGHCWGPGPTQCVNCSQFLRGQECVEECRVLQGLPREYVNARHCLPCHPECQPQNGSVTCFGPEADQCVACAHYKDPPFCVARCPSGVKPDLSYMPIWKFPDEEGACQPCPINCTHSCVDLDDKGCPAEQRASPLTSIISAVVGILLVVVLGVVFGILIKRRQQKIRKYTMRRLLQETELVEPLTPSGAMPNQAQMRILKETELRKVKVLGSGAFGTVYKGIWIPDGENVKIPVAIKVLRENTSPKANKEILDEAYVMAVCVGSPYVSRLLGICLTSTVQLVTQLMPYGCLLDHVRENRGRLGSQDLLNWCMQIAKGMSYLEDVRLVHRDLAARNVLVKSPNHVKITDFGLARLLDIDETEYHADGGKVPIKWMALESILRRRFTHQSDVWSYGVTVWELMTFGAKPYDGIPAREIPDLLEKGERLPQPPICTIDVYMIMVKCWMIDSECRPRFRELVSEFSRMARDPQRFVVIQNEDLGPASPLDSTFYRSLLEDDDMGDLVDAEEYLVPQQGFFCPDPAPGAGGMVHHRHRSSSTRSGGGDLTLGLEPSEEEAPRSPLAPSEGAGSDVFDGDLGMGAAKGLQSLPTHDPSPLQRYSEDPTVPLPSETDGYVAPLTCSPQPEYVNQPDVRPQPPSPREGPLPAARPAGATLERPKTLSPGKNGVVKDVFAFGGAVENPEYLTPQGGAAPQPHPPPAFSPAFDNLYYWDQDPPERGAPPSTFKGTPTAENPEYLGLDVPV
# experiment.description: HER2 signaling (pHER2) in NCI-H1781 cells
# particulars: 1.5 hr compound, 1% FBS
# Lookup of reported EC50 keyed by entry

Some entries whose results are on file:
Cc1ccc(Oc2ccc(Nc3ncnc4sc5c(c34)C(C)CN(C(=O)/C=C/CN3CCOCC3)C5)cc2C)cn1 (stereo not drawn) [Compound 174]
< 0.1 µM
COc1ccc(Oc2ccc(Nc3ncnc4sc5c(c34)C(C)CN(C(=O)/C=C/CN(C)C)C5)cc2C)cn1 (stereo not drawn) [Compound 152]
< 0.1 µM
Cc1ccc(Oc2ccc(Nc3ncnc4sc5c(c34)CCN(C(=O)/C=C/CN3CCOCC3)C5)cc2C)cn1 [Compound 17]
< 0.1 µM
Cc1ccc(Oc2ccc(Nc3ncnc4sc5c(c34)C(C)CN(C(=O)C=CCN3CCOCC3)C5)cc2C)cn1 (single isomer, unassigned) [Compound 177]
< 0.1 µM
Cc1ccc(Oc2ccc(Nc3ncnc4sc5c(c34)CN(C(=O)C=CCN(C)C)C5C)cc2C)cn1 (single isomer, unassigned) [Compound 170]
0.1 to 0.35 µM

For the next question, use this compound.
Form: compound = Cc1ccc(Oc2ccc(Nc3ncnc4sc5c(c34)C(C)CN(C(=O)C=CCN(C)C)C5)cc2C)cn1 (single isomer, unassigned) [Compound 105] ; EC50 = < 0.1 µM

* * *

# measured.on: HER2YVMA (Homo sapiens, UniProt P04626, INS775YVMA)
# experiment.description: Enzymatic assay HER2YVMA (method b)
# particulars: [HER2YVMA]=5 nM, [ATP]=25 μM, [Peptide 22]=1 μM
pIC50: −log10 of the molar value.
attribute.measured: pIC50

COCCN1CCN(C/C=C/C(=O)N2CCc3c(sc4ncnc(Nc5ccc(Oc6ccc(C)nc6)c(C)c5)c34)C2)CC1
6.00 to 7.00
Cc1ccc(Oc2ccc(Nc3ncnc4sc5c(c34)CCN(C(=O)/C=C/CN3CCN4C(=O)CCC4C3)C5)cc2C)cn1 (stereo not shown)
6.00 to 7.00
Cc1ccc(Oc2ccc(Nc3ncnc4sc5c(c34)C(C)CN(C(=O)/C=C/CN(C)C)C5)cc2C)cn1 (stereo not shown)
> 7.00

// next entry
Summary for this compound, `Cc1cc(Nc2ncnc3sc4c(c23)CN(C(=O)/C=C/CN(C)C)CC4)ccc1Oc1ccc2ncnn2c1` : pIC50 is > 7.00
